Where do these numbers come from? They come from ChEMBL document CHEMBL2176902.

The compounds listed here are annotated with their Activity.
# ASSAYED TARGET: UniProtKB Q86X55
# Sequence (Q86X55 whole entry): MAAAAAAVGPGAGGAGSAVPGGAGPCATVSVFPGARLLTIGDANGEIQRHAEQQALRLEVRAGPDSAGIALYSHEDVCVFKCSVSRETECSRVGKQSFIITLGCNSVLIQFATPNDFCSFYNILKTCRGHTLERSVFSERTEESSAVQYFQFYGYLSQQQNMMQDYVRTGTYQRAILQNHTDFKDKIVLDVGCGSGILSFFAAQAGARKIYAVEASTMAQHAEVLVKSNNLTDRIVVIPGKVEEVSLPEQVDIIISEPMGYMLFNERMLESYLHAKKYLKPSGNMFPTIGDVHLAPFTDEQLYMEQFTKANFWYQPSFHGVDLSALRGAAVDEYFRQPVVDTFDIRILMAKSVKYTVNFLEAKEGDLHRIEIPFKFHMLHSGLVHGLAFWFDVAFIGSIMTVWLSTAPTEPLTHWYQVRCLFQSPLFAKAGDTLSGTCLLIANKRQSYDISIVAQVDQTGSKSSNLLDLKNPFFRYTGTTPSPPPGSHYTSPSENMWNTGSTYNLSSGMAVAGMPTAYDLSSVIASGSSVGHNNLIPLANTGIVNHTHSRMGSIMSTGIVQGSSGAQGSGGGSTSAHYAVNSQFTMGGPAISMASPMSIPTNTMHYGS
# ASSAY INFO: Activation of recombinant CARM1 using PABP1 as substrate and [3H]-SAM at 50 uM after 90 mins by scintillation counting

SMILES STRING: O=C(CNC(=O)Nc1ccccc1)Nc1ccc2[nH]c(C(=O)O)cc2c1
Activity [%]: 172
--
SMILES STRING: COC(=O)c1c[nH]c2ccc(NC(=O)CNC(=O)Nc3ccccc3)cc12
Activity [%]: 26.5
--
SMILES STRING: CCOC(=O)c1cc2cc(NC(=O)CNC(=O)Nc3ccc(OC)cc3)ccc2[nH]1
Activity [%]: 74.7
--
SMILES STRING: CCOC(=O)c1cc2cc(NC(=O)CNC(=O)Nc3ccc(N(C)C)cc3)ccc2[nH]1
Activity [%]: 70.6
--
SMILES STRING: COC(=O)c1c[nH]c2ccc(NC(=O)CNC(=O)Nc3ccc(N(C)C)cc3)cc12
Activity [%]: 7.6
--
SMILES STRING: CN(C)c1ccc(NC(=O)NCC(=O)Nc2ccc3[nH]c(C(=O)O)cc3c2)cc1
Activity [%]: 135
--
SMILES STRING: COC(=O)c1c[nH]c2ccc(NC(=O)CNC(=O)Nc3ccc(C)cc3)cc12
Activity [%]: 4.7
--
SMILES STRING: CCOC(=O)c1cc2cc(NC(=O)CNC(=O)Nc3ccc(C)cc3)ccc2[nH]1
Activity [%]: 382
--
SMILES STRING: COc1ccc(NC(=O)NCC(=O)Nc2ccc3[nH]c(C(=O)O)cc3c2)cc1
Activity [%]: 96.3

====

The molecules listed here are annotated with their Activity.
# ASSAYED TARGET: Histone-arginine methyltransferase CARM1 (Homo sapiens)
# ASSAY INFO: Activation of recombinant CARM1 using histone H3 as substrate and [3H]-SAM at 50 uM after 90 mins by scintillation counting

SMILES STRING: COc1ccc(NC(=O)NCC(=O)Nc2ccc3[nH]c(C(=O)O)cc3c2)cc1
ASSAYED TARGET: Histone-arginine methyltransferase CARM1 (Homo sapiens)
Activity, %: 211
--
SMILES STRING: CCOC(=O)c1cc2cc(NC(=O)CNC(=O)Nc3ccc(C)cc3)ccc2[nH]1
ASSAYED TARGET: Histone-arginine methyltransferase CARM1 (Homo sapiens)
Activity, %: 127
--
SMILES STRING: CCOC(=O)c1cc2cc(NC(=O)CNC(=O)Nc3ccc(N(C)C)cc3)ccc2[nH]1
ASSAYED TARGET: Histone-arginine methyltransferase CARM1 (Homo sapiens)
Activity, %: 102
--
SMILES STRING: Cc1ccc(NC(=O)NCC(=O)Nc2ccc3[nH]c(C(=O)O)cc3c2)cc1
ASSAYED TARGET: Histone-arginine methyltransferase CARM1 (Homo sapiens)
Activity, %: 111
--
SMILES STRING: COC(=O)c1c[nH]c2ccc(NC(=O)CNC(=O)Nc3ccccc3)cc12
ASSAYED TARGET: Histone-arginine methyltransferase CARM1 (Homo sapiens)
Activity, %: 74.7
--
SMILES STRING: CN(C)c1ccc(NC(=O)NCC(=O)Nc2ccc3[nH]c(C(=O)O)cc3c2)cc1
ASSAYED TARGET: Histone-arginine methyltransferase CARM1 (Homo sapiens)
Activity, %: 48.3
--
SMILES STRING: COC(=O)c1c[nH]c2ccc(NC(=O)CNC(=O)Nc3ccc([N+](=O)[O-])cc3)cc12
ASSAYED TARGET: Histone-arginine methyltransferase CARM1 (Homo sapiens)
Activity, %: 134
--
SMILES STRING: O=C(CNC(=O)Nc1ccc([N+](=O)[O-])cc1)Nc1ccc2[nH]c(C(=O)O)cc2c1
ASSAYED TARGET: Histone-arginine methyltransferase CARM1 (Homo sapiens)
Activity, %: 142
--
SMILES STRING: CCOC(=O)c1cc2cc(NC(=O)CNC(=O)Nc3ccc(OC)cc3)ccc2[nH]1
ASSAYED TARGET: Histone-arginine methyltransferase CARM1 (Homo sapiens)
Activity, %: 183
--
SMILES STRING: CCOC(=O)c1cc2cc(NC(=O)CNC(=O)Nc3ccccc3)ccc2[nH]1
ASSAYED TARGET: Histone-arginine methyltransferase CARM1 (Homo sapiens)
Activity, %: 134
--
SMILES STRING: O=C(Nc1ccc2cc(C(=O)O)cc(O)c2c1)Nc1ccc2cc(C(=O)O)cc(O)c2c1
ASSAYED TARGET: Histone-arginine methyltransferase CARM1 (Homo sapiens)
Activity, %: 83.1
